Test system: NCI-H226 lung
Experiment: NCI tumour cell line growth inhibition, 48 h
Below is a list of entries, each paired with its recorded TGI value.

compound=Cc1cccc(C)c1NC(=O)C(=O)Cc1nc2ccccc2s1 val="> 100 µM"
compound="C=C(C)C1CC(=O)C(C)=C(O)C1 (stereo not drawn)" val="> 100 µM"

Now look at this entry.
Request: Please indicate recorded TGI of COc1cc2c(/C=C3/C(=O)Nc4ccccc43)c(Cl)n(Cc3ccc(Cl)cc3)c2cc1C measured with NCI-H226 lung.
Response: 1.79 µM

====

Below is a list of entries, each paired with its recorded TGI value.
System: ACHN renal
Test: NCI tumour cell line growth inhibition, 48 h

Worked set:
molecule="COC1CC(C)(NC(=O)C(F)(F)F)C2OC(c3ccccc3)OCC2O1 (centres undefined)" assayreadout=TGI val="> 100 µM"
molecule=CC(=O)n1[nH]c(=O)n(-c2ccc(Cl)cc2)c1=O assayreadout=TGI val="> 100 µM"
molecule="FC1=C2C3CCC(C3)C2C1(F)F (centres undefined)" assayreadout=TGI val="> 100 µM"
molecule=Cc1ccc(/C(=N/Nc2ccc([N+](=O)[O-])cc2)Sc2cc(Cl)c(C)cc2S(N)(=O)=O)cc1 assayreadout=TGI val="6.51 µM"
molecule=CN(C)C(=S)/N=c1\ss/c(=N\C(=S)N(C)C)n1-c1cccc(Cl)c1 assayreadout=TGI val="> 100 µM"

Request: Identify measured TGI corresponding to CCC[CH2][Sn-]([CH2]CCC)([CH2]CCC)[O]C(=O)C(C)C
Response: 0.273 µM

Request: Identify measured TGI corresponding to COP(=O)(OC)OCN(C)CC/C=C(\C)CC/C=C(\C)CCC=C(C)C
Response: 64.2 µM

Request: Identify measured TGI corresponding to COC(=O)c1c2c(cc3c1CC1(Cc4cc5c(c(C=O)c4C1)CCC5)C3)CCC2 (centres undefined)
Response: > 100 µM

Request: Identify measured TGI corresponding to C/C(=C1\N=C(c2ccccc2)OC1=O)c1ccccc1
Response: > 100 µM

Request: Identify measured TGI corresponding to COc1cc2c[n+]3c4c(c2c(OC)c1OC)CCCC4CC3 (centres undefined)
Response: > 100 µM

====

Test system: NCI-H460 lung
Assay: NCI tumour cell line growth inhibition, 48 h
assayReadout: TGI

Worked set:
compound="COc1cc(/C=N/NC(=O)c2cnn3c2NC(c2ccccc2)C3)ccc1OC1CCCC1 (stereo unspecified)" assayreadout=TGI val="1.56 µM"
compound="NC(=O)CCC(N=c1c2ccccc2n(O)c2ccccc12)C(=O)O (stereo unspecified)" assayreadout=TGI val="> 100 µM"
compound="C=C(C)C1CC(=O)C(C)=C(O)C1 (stereo unspecified)" assayreadout=TGI val="> 100 µM"

Request: Identify measured TGI corresponding to O=C1/C(=C/c2ccccc2)Oc2cc(O)ccc21
Response: > 100 µM

Request: Identify measured TGI corresponding to COc1ccc2[nH]c(C(=O)N3CCN(C(=O)OCc4ccc5c(Cl)cc(Cl)c(O)c5n4)CC3)cc2c1
Response: 2.76 µM

Request: Identify measured TGI corresponding to Cc1c(C)c2c(c(N)c1C#N)C(=O)N(N)C2=O
Response: > 100 µM

Request: Identify measured TGI corresponding to COC(=N)C1(C#N)NC(c2ccsc2)C(C#N)(C#N)NC1c1ccsc1 (stereo unspecified)
Response: > 100 µM

Request: Identify measured TGI corresponding to O=S(=O)(Nc1nc2ccccc2nc1N1CCCCCC1)c1ccccc1
Response: 33.5 µM

Request: Identify measured TGI corresponding to [N-]=[N+]=CC(=O)CCC(N)C(=O)O (stereo unspecified)
Response: 147 µM
